Items are presented alongside their recorded melting point.
REPORTED_ENDPOINT: melting point

| STRUCTURE_AS_SMILES | REPORTED_ENDPOINT | OBSERVED_MEASUREMENT |
| --- | --- | --- |
| O=C(O)c1ccc(-n2cc(COc3ccc(/C=N/N4C(=O)c5ccccc5C4=O)cc3)nn2)cc1 | melting point | 287 to 288 °C |
| Cc1ccc(CNC(=O)Cn2cc(COc3ccc(/C=N/N4C(=O)c5ccccc5C4=O)cc3)nn2)cc1 | melting point | 201 to 202 °C |
| CC(=O)c1ccc(-n2cc(COc3ccc(/C=N/N4C(=O)c5ccccc5C4=O)cc3)nn2)cc1 | melting point | 275 to 276 °C |
| O=C(Cn1cc(COc2ccc(/C=N/N3C(=O)c4ccccc4C3=O)cc2)nn1)Nc1ccc(I)cc1F | melting point | 228 to 229 °C |

###

System: SARS-CoV-2 isolate EGY/WAT-2 VACCERA
Assay: microbe, parasite or virus in culture
Assay type: cell-based
Conditions: Severe acute respiratory syndrome coronavirus 2, Vero C1008, dose-response at five concentrations starting from 10 uM; read-out: EC50 of virus inhibition
pEC50: −log10 of the molar value.
REPORTED_ENDPOINT: pEC50

| STRUCTURE_AS_SMILES | REPORTED_ENDPOINT | OBSERVED_MEASUREMENT |
| --- | --- | --- |
| O=C(Cn1cc(COc2ccc(/C=N/N3C(=O)c4ccccc4C3=O)cc2)nn1)Nc1ccc(C(=O)O)cc1 | pEC50 | 7.42 |
